Catalogue of kinase still bound, per cent of control readings, one per entry.
molecular target: NTRK2 (human); assay: KINOMEscan competition binding; conditions: compound 10.0 µM
EXPERIMENTAL READOUT: kinase still bound, per cent of control (%)

| MOLECULE | EXPERIMENTAL READOUT | TEST VALUE |
| --- | --- | --- |
| O=C(Nc1cccc(Nc2ncc(Br)c(NCCc3cnc[nH]3)n2)c1)N1CCCC1 | kinase still bound, per cent of control | 0.45 |
| C=CC(=O)Nc1ccc(CN(C(=O)Nc2c(Cl)c(OC)cc(OC)c2Cl)c2cc(Nc3ccc(N4CCN(C)CC4)cc3)ncn2)cc1 | kinase still bound, per cent of control | 100 |
| CN(C)C/C=C/C(=O)Nc1ccc(C(=O)Nc2cccc(Nc3nccc(-c4cccnc4)n3)c2)cc1 | kinase still bound, per cent of control | 69 |
| COc1cc(C(=O)N2CCC(N3CCN(C)CC3)CC2)ccc1Nc1ncc2c(n1)N(C)c1ccccc1C(=O)N2C | kinase still bound, per cent of control | 100 |

====

target: PRKD3 (human); test: KINOMEscan competition binding; details: compound 10.0 µM

| MOLECULE | kinase still bound, per cent of control |
| --- | --- |
| O=C1NC(=O)/C(=C/c2ccc3nccc(-c4ccncc4)c3c2)S1 | 74% |
| COc1cc2ncn(-c3cc(OCc4ccccc4C(F)(F)F)c(C(N)=O)s3)c2cc1OC | 100% |
| C=CC(=O)Nc1ccc(CN(C(=O)Nc2c(Cl)c(OC)cc(OC)c2Cl)c2cc(Nc3ccc(N4CCN(C)CC4)cc3)ncn2)cc1 | 100% |
| COCC(=O)NC/C=C/c1ccc2ncnc(Nc3ccc(Oc4ccc(C)nc4)c(C)c3)c2c1 | 83% |
| COc1ccc(N(C(=O)Oc2c(C)cccc2C)c2ccnc(Nc3ccc(N4CCN(C)CC4)cc3)n2)c(OC)c1 | 11% |
| CCN(CC)CCCCNc1ncc2cc(-c3cc(OC)cc(OC)c3)c(NC(=O)NC(C)(C)C)nc2n1 | 100% |
| NC(=O)Nc1cc(-c2cccc(F)c2)sc1C(=O)N[C@@H]1CCCNC1 | 2.2% |
| CN(C)C/C=C/C(=O)Nc1ccc(C(=O)Nc2cccc(Nc3nccc(-c4cccnc4)n3)c2)cc1 | 94% |
| O=C(Nc1cccc(Nc2ncc(Br)c(NCCc3cnc[nH]3)n2)c1)N1CCCC1 | 0.5% |

====

molecular target: IRAK3 (human); assay: KINOMEscan competition binding; conditions: compound 10.0 µM
Catalogue of kinase still bound, per cent of control readings, one per entry.

| MOLECULE | SYSTEM NAME | kinase still bound, per cent of control [%] |
| --- | --- | --- |
| CCN(CC)CCCCNc1ncc2c(n1)N(C)C(=O)N(c1c(Cl)c(OC)cc(OC)c1Cl)C2 | IRAK3 (human) | 100 |
| CN(C)C/C=C/C(=O)Nc1ccc(C(=O)Nc2cccc(Nc3nccc(-c4cccnc4)n3)c2)cc1 | IRAK3 (human) | 6.8 |
| CNC(=O)c1cc(Oc2ccc(NC(=O)Nc3ccc(Cl)c(C(F)(F)F)c3)cc2)ccn1 | IRAK3 (human) | 81 |
| CS(=O)(=O)N1CCN(Cc2cc3nc(-c4cccc5[nH]ncc45)nc(N4CCOCC4)c3s2)CC1 | IRAK3 (human) | 100 |
| N#CCNC(=O)c1ccc(-c2ccnc(Nc3ccc(N4CCOCC4)cc3)n2)cc1 | IRAK3 (human) | 22 |
| COCC(=O)NC/C=C/c1ccc2ncnc(Nc3ccc(Oc4ccc(C)nc4)c(C)c3)c2c1 | IRAK3 (human) | 82 |
| C=CC(=O)Nc1ccc(CN(C(=O)Nc2c(Cl)c(OC)cc(OC)c2Cl)c2cc(Nc3ccc(N4CCN(C)CC4)cc3)ncn2)cc1 | IRAK3 (human) | 100 |
| Cc1n[nH]c2ccc(-c3cncc(OC[C@@H](N)Cc4c[nH]c5ccccc45)c3)cc12 | IRAK3 (human) | 30 |
| COc1ccc(N(C(=O)Oc2c(C)cccc2C)c2ccnc(Nc3ccc(N4CCN(C)CC4)cc3)n2)c(OC)c1 | IRAK3 (human) | 19 |
| O=C1NC(=O)/C(=C/c2ccc3nccc(-c4ccncc4)c3c2)S1 | IRAK3 (human) | 14 |
| NC(=O)Nc1cc(-c2cccc(F)c2)sc1C(=O)N[C@@H]1CCCNC1 | IRAK3 (human) | 6.4 |
| C[C@@H](Oc1cc(-c2cnn(C3CCNCC3)c2)cnc1N)c1c(Cl)ccc(F)c1Cl | IRAK3 (human) | 0.95 |
| O=c1cc(N2CCOCC2)oc2c(-c3cccc4c3sc3ccccc34)cccc12 | IRAK3 (human) | 41 |
| C=CC(=O)Nc1cc(-n2c(=O)ccc3cnc4ccc(-c5cn[nH]c5)cc4c32)ccc1C | IRAK3 (human) | 0.7 |
| CNC(=O)c1ccc(Nc2cc(Nc3ccccc3S(=O)(=O)C(C)C)c3cc[nH]c3n2)nc1 | IRAK3 (human) | 15 |
| COc1cc2ncn(-c3cc(OCc4ccccc4C(F)(F)F)c(C(N)=O)s3)c2cc1OC | IRAK3 (human) | 67 |
| O=C(Nc1cccc(Nc2ncc(Br)c(NCCc3cnc[nH]3)n2)c1)N1CCCC1 | IRAK3 (human) | 0.7 |
| COc1cc(N2CCN(C)CC2)ccc1Nc1ncc2c(n1)N(C)c1ccccc1C(=O)N2C | IRAK3 (human) | 100 |
| CCN(CC)CCCCNc1ncc2cc(-c3cc(OC)cc(OC)c3)c(NC(=O)NC(C)(C)C)nc2n1 | IRAK3 (human) | 100 |

====

molecular target: PRKCI (human); assay: KINOMEscan competition binding; details: compound 10.0 µM
EXPERIMENTAL READOUT: kinase still bound, per cent of control (%)

| MOLECULE | TEST VALUE |
| --- | --- |
| COc1cc2ncnc(-n3nc(-c4ccccn4)nc3N)c2cc1OC | 55 |
| NC(=O)Nc1cc(-c2cccc(F)c2)sc1C(=O)N[C@@H]1CCCNC1 | 11 |
| C=CC(=O)Nc1cc(-n2c(=O)ccc3cnc4ccc(-c5cn[nH]c5)cc4c32)ccc1C | 99 |
| CNC(=O)c1cc(Oc2ccc(NC(=O)Nc3ccc(Cl)c(C(F)(F)F)c3)cc2)ccn1 | 100 |
| COc1ccc(N(C(=O)Oc2c(C)cccc2C)c2ccnc(Nc3ccc(N4CCN(C)CC4)cc3)n2)c(OC)c1 | 62 |
| O=c1cc(N2CCOCC2)oc2c(-c3cccc4c3sc3ccccc34)cccc12 | 100 |
| COCC(=O)NC/C=C/c1ccc2ncnc(Nc3ccc(Oc4ccc(C)nc4)c(C)c3)c2c1 | 93 |
| N#CCNC(=O)c1ccc(-c2ccnc(Nc3ccc(N4CCOCC4)cc3)n2)cc1 | 75 |
| CN(C)C/C=C/C(=O)Nc1ccc(C(=O)Nc2cccc(Nc3nccc(-c4cccnc4)n3)c2)cc1 | 100 |
| O=C(Nc1cccc(Nc2ncc(Br)c(NCCc3cnc[nH]3)n2)c1)N1CCCC1 | 45 |

====

biological target: IRAK4 (human) (UniProt Q9NWZ3); assay: KINOMEscan competition binding; conditions: compound 10.0 µM
Sequence (Q9NWZ3 whole entry, looked up): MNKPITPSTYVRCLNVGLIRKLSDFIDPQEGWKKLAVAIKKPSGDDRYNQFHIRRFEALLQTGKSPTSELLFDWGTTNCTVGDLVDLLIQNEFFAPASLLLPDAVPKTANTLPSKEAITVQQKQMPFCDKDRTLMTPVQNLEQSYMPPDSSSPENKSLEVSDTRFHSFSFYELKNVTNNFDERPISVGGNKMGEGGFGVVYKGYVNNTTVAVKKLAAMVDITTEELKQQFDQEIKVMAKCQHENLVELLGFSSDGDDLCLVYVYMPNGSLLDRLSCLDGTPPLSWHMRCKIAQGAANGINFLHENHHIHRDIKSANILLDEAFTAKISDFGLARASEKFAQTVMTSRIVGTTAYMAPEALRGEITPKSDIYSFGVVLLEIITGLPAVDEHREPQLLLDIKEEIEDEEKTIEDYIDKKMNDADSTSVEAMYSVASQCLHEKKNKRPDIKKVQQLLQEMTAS
Strictly below 30% in kinase still bound, per cent of control: Satisfied. Otherwise: Not satisfied.

| MOLECULE | SYSTEM NAME | ASSIGNED CLASS |
| --- | --- | --- |
| C=CC(=O)Nc1cc(-n2c(=O)ccc3cnc4ccc(-c5cn[nH]c5)cc4c32)ccc1C | IRAK4 (human) (UniProt Q9NWZ3) | Not satisfied |
| COc1cc2ncn(-c3cc(OCc4ccccc4C(F)(F)F)c(C(N)=O)s3)c2cc1OC | IRAK4 (human) (UniProt Q9NWZ3) | Not satisfied |
| CNC(=O)c1cc(Oc2ccc(NC(=O)Nc3ccc(Cl)c(C(F)(F)F)c3)cc2)ccn1 | IRAK4 (human) (UniProt Q9NWZ3) | Not satisfied |
| O=C1NC(=O)/C(=C/c2ccc3nccc(-c4ccncc4)c3c2)S1 | IRAK4 (human) (UniProt Q9NWZ3) | Not satisfied |
| CCN1CCN(C(=O)Cc2ccc(Nc3ncc(F)c(Nc4ccc(C(=O)Nc5ccccc5Cl)cc4)n3)cc2)CC1 | IRAK4 (human) (UniProt Q9NWZ3) | Not satisfied |
| COc1cc(C(=O)N2CCC(N3CCN(C)CC3)CC2)ccc1Nc1ncc2c(n1)N(C)c1ccccc1C(=O)N2C | IRAK4 (human) (UniProt Q9NWZ3) | Not satisfied |
| COc1cc2ncnc(-n3nc(-c4ccccn4)nc3N)c2cc1OC | IRAK4 (human) (UniProt Q9NWZ3) | Satisfied |
| COCC(=O)NC/C=C/c1ccc2ncnc(Nc3ccc(Oc4ccc(C)nc4)c(C)c3)c2c1 | IRAK4 (human) (UniProt Q9NWZ3) | Not satisfied |
| NC(=O)Nc1cc(-c2cccc(F)c2)sc1C(=O)N[C@@H]1CCCNC1 | IRAK4 (human) (UniProt Q9NWZ3) | Satisfied |
| COc1ccc(N(C(=O)Oc2c(C)cccc2C)c2ccnc(Nc3ccc(N4CCN(C)CC4)cc3)n2)c(OC)c1 | IRAK4 (human) (UniProt Q9NWZ3) | Not satisfied |
| O=C(Nc1cccc(Nc2ncc(Br)c(NCCc3cnc[nH]3)n2)c1)N1CCCC1 | IRAK4 (human) (UniProt Q9NWZ3) | Satisfied |
| N#CCNC(=O)c1ccc(-c2ccnc(Nc3ccc(N4CCOCC4)cc3)n2)cc1 | IRAK4 (human) (UniProt Q9NWZ3) | Not satisfied |
| O=c1cc(N2CCOCC2)oc2c(-c3cccc4c3sc3ccccc34)cccc12 | IRAK4 (human) (UniProt Q9NWZ3) | Not satisfied |
| C[C@@H](Oc1cc(-c2cnn(C3CCNCC3)c2)cnc1N)c1c(Cl)ccc(F)c1Cl | IRAK4 (human) (UniProt Q9NWZ3) | Satisfied |
| CN(C)C/C=C/C(=O)Nc1ccc(C(=O)Nc2cccc(Nc3nccc(-c4cccnc4)n3)c2)cc1 | IRAK4 (human) (UniProt Q9NWZ3) | Not satisfied |
